Source of measurements: PubChem BioAssay (NCATS)

- PROTOCOL_DESCRIPTION: Primary qHTS for small molecule stabilizers of the endoplasmic reticulum resident proteome: Secreted ER Calcium Modulated Protein (SERCaMP) assay (AID 1508630); note: % is set by controls: 0 for no effect and ±100 for the full control effect
- MEASUREMENT_CONTEXT: SH-SY5Y GLuc-SERCaMP (Gaussia luciferase released on ER calcium loss) secretion, thapsigargin, luminescence; series mostly up to 38.4 µM
Results filed as inconclusive are left out. The source made the active and inactive calls. Calls come from the whole dose curve; as a rule, active = well fitted inhibition curve with a large enough effect; inconclusive = small, poorly fitted or top-dose-only effect; inactive = no such curve, though single readings can be large or run the other way.
MEASUREMENT_TYPE: outcome

Worked examples, 4 molecules total:
COCC(=O)N1CCC2(CC1)CN(C(=O)Nc1cccc(C#N)c1)C2 inactive
COc1ccc(C(=O)N2CCC[C@@]3(CCN(Cc4ccc(C#N)cc4)C3)C2)cc1 inactive
Cc1csc(-c2coc3cc(O[C@@H]4O[C@H](CO)[C@@H](O)[C@@H](O)[C@H]4O)ccc3c2=O)n1 inactive
CN(C)c1ccc(-c2ccc3ncnc(-n4ccnc4)c3c2)cc1 inactive

Now for a further molecule.
Give recorded outcome. CN(C)C(=O)c1ccc(-c2cncnc2N2CCNCC2)cc1
inactive

* * *

Exercise: for every item that follows, state its recorded max response.
- PROTOCOL_DESCRIPTION: qHTS Assay for Lipid Storage Modulators (AID 1519)
- MEASUREMENT_CONTEXT: Drosophila S3 cells, BODIPY lipid droplet/cell ratio, laser cytometry; measured here: lipid channel max response; cells loaded with oleic acid
Records with an inconclusive call do not appear.

MOLECULE	max response
O=C(c1cccc(F)c1)N1CCC2(CC1)CCN(c1ccccc1)CC2	4.22%
CCNc1ncc2ncc(=O)n(CCOC)c2n1	22.5%

Go through the items and report each one's max response.
1. Cc1noc(C)c1-c1cc(NCc2cccnc2)ncn1
2. COc1ccc(-c2nc3cnc(N4CCN(C)CC4)nc3n(-c3ccc(OC)cc3)c2=O)cc1
3. Cc1nc2cnc(N3CCN(C)CC3)nc2n(C)c1=O
4. COCCNc1ccnc(-c2cccc(NS(C)(=O)=O)c2)n1
5. CN1CCN(c2ncnc3ccc(-c4ccccc4C#N)cc23)CC1
6. NCCC(=O)NCCc1cnc[nH]1
7. Cc1noc(C)c1C(=O)N1CCC2(CCCN(c3ccccc3)C2)CC1

1. 6.22%
2. 29.8%
3. 7.23%
4. 25.9%
5. -16%
6. 15.5%
7. 9.27%

Go through the items and report each one's max response.
1. CN(Cc1ccco1)c1ncncc1-c1cccc(C#N)c1
2. CNc1ncnc2ccc(-c3ccccc3CN(C)C)cc12
3. CCNc1ncc2nc(C)c(=O)n(C)c2n1
4. CC1COC2=C1C(=O)C(=O)c1c2ccc2c1CCCC2(C)C (configuration not stated)
5. Cn1cc(-c2nc3cnc(Oc4ccccc4)nc3n(C)c2=O)c2ccccc21
6. FC(F)(F)c1ccccc1-c1nc(N2CCOCC2)c2ccccc2n1
7. CC(=O)N1CCC2(CCCN(c3ccccc3)C2)CC1

1. 17.8%
2. 10.7%
3. 26.7%
4. -5.49%
5. 18.4%
6. 28.1%
7. 12.8%

Go through the items and report each one's max response.
1. COCCNc1nc(-c2ccccc2Cl)nc2ccccc12
2. c1csc(CNc2ncncc2-c2ccc3c(c2)OCO3)c1
3. N#Cc1cccc(-c2nc3cnc(N4CCOCC4)nc3n(C3CC3)c2=O)c1
4. O=c1c(-c2ccccc2)nc2cnc(N3CCNCC3)nc2n1C1CC1

1. 4.03%
2. 8.95%
3. 13.2%
4. 42.5%

Go through the items and report each one's max response.
1. O=C(Nc1ccccc1)N1CCC2(CC1)CCN(C(=O)c1csnn1)CC2
2. COc1ccccc1CNc1ncncc1-c1cccnc1
3. CC(C)=CCC1=C(O)c2ccccc2C(=O)C1=O
4. O=c1c(-c2cccs2)nc2cncnc2n1Cc1ccccc1
5. COCCNc1cc(-c2ccccc2C)ncn1

1. 23.2%
2. 13.8%
3. 0.642%
4. 21.4%
5. 8.94%

* * *

- PROTOCOL_DESCRIPTION: qHTS drug screen for cell cycle checkpoint inhibitors in PARPi-resistant BRCA-mutant ovarian cancer cell lines. (AID 1963452)
- MEASUREMENT_CONTEXT: PEO1/OlaR viability, CellTiter-Glo luminescence, 96 h; stronger effect = lower value
Z-AUC vs 0.4: less than gives 1; not less than gives -1.

MOLECULE	ASSIGNED_LABEL
COc1ccc(COc2ccc(Cc3cnc(N)nc3N)cc2OC)cc1	-1

Lab note: confirm whether the reported Z-AUC for this molecule is below 0.4, equality not counting. molecule: CN(C)C/C=C/C(=O)Nc1cc2c(Nc3ccc(F)c(Cl)c3)ncnc2cc1O[C@H]1CCOC1
1

* * *

- MEASUREMENT_TARGET: Cytochrome P450 3A4 (Homo sapiens)
- PROTOCOL_DESCRIPTION: qHTS Assay for Inhibitors and Substrates of Cytochrome P450 3A4 (AID 884); note: nearly all actives have a fitted effect of over 50% in size
- MEASUREMENT_CONTEXT: recombinant CYP3A4, Luciferin-PPXE luminescence; series mostly up to 57.1 µM
Inconclusive results are not listed. Active and inactive are the calls of the source. Calls follow the shape of the dose curve; as a rule, active = well fitted inhibition curve with a large enough effect; inconclusive = small, poorly fitted or top-dose-only effect; inactive = no such curve, though single readings can be large or run the other way.
Select the matching outcome among Y (active), N (inactive)

Use the examples below as a reference point.
COMPOUND	ASSIGNED_LABEL
CCCCNc1nc(C)nc2c1nc(-c1ccccc1)n2CC1CCCN1CC (stereo unspecified)	Y
CN(C)C(=O)c1ccc(-c2cncnc2NCCc2cnc[nH]2)cc1	Y
COc1ccc(-n2c(=O)c(-c3cccs3)nc3cnc(OC)nc32)cc1	Y
CNc1cc(-c2ccccc2C(F)(F)F)ncn1	N
CCCn1c(-c2ccc(F)cc2)nc2c(NC(C)CCCN(CC)CC)nc(C)nc21 (stereo unspecified)	Y

Query compound follows.
Entry O=C(Nc1ccccc1)Nc1ccccc1 : call = ?
N

* * *

- System: CP237
- PROTOCOL_DESCRIPTION: qHTS profiling for inhibitors of Plasmodium falciparum proliferation (AID 504749); note: nearly all actives have a fitted effect of over 60% in size
- MEASUREMENT_CONTEXT: P. falciparum in erythrocytes, SYBR Green DNA, 72 h; series mostly up to 28.7 µM
Inconclusive results are not listed. Calls of active or inactive are those of the source. Calls follow the shape of the dose curve; as a rule, active = well fitted inhibition curve with a large enough effect; inconclusive = small, poorly fitted or top-dose-only effect; inactive = flat fitted curve, though single readings scatter.
Select the matching outcome among Y (active), N (inactive)

Entry COc1ccc(CCNC[C@@H](O)c2ccc(O)cc2)cc1OC : call = ?
N

Entry CC(C)(C)[C@]1(O)CCN2CC3c4ccccc4CCc4cccc(c43)[C@@H]2C1 (stereo partly specified) : call = ?
Y

Entry CO[C@H]1/C=C/O[C@@]2(C)Oc3c(C)c(O)c4c(O)c(c(/C=N\N5CCN(C6CCCC6)CC5)c(O)c4c3C2=O)NC(=O)/C(C)=C\C=C\[C@H](C)[C@H](O)[C@@H](C)[C@@H](O)[C@@H](C)[C@H](OC(C)=O)[C@@H]1C : call = ?
Y

Entry CN1C[C@H](C(=O)N[C@]2(C)O[C@@]3(O)C4CCCN4C(=O)[C@H](Cc4ccccc4)N3C2=O)C[C@@H]2c3cccc4[nH]cc(c34)C[C@H]21 (stereo partly specified) : call = ?
Y

Entry C[C@@H]1[C@H](O)[C@@H](C)/C=C/C=C/C=C/C=C/C=C/C=C/C=C/[C@H](O[C@@H]2O[C@H](C)[C@@H](O)[C@H](N)[C@@H]2O)C[C@@H]2O[C@](O)(C[C@@H](O)C[C@@H](O)[C@H](O)CC[C@@H](O)C[C@@H](O)CC(=O)O[C@H]1C)C[C@H](O)[C@H]2C(=O)O : call = ?
N

Entry N[C@H](Cc1ccc(O)c(O)c1)C(=O)O : call = ?
N

* * *

- MEASUREMENT_TARGET: 3',5'-cyclic-AMP phosphodiesterase 4B (Homo sapiens)
- PROTOCOL_DESCRIPTION: qHTS Assay for Inhibitors of PDE-IV (AID 607); note: % of control where 0% means no effect
- MEASUREMENT_CONTEXT: HEK293 ACTOne CNG channel cells, membrane potential fluorescence; series mostly up to 22.9 µM
Records with an inconclusive call do not appear. Active and inactive are the calls of the source. Calls follow the shape of the dose curve; as a rule, active = well fitted activation curve with a large enough effect in the main read-out, with a control signal flat (not every such curve was filed as active); inconclusive = small, poorly fitted or top-dose-only effect, or effect the other way, or a change in a side signal; inactive = flat fitted curve, though single readings scatter.
MEASUREMENT_TYPE: outcome

Worked examples, 5 compounds total:
COc1ncc2nc(-c3ccccc3)c(=O)n(C)c2n1 inactive
CCNc1ncc2nc(-c3cn(C)c4ccccc34)c(=O)n(Cc3cccc(OC)c3)c2n1 inactive
COc1ccc(Oc2ncc3ncc(=O)n(C)c3n2)cc1 inactive
CC(=O)N1CCC[C@@]2(CCN(Cc3ccccc3)C2)C1 inactive
Cn1cccc1C(=O)N1CCC[C@@]2(CCN(c3ccccc3)C2)C1 inactive

Now for a further compound.
State the measured outcome (3',5'-cyclic-AMP phosphodiesterase 4B (Homo sapiens)) of O=C(Nc1cccc(F)c1)N1CCC2(CC1)CCN(C(=O)c1csnn1)CC2
inactive

* * *

- PROTOCOL_DESCRIPTION: qHTS for activators of Nrf2/ARE signaling pathway screened against the NCATS CANVASS Library (AID 1347391); note: nearly all actives have a fitted effect of over 60% in size; for activation: 0% is about no effect
- MEASUREMENT_CONTEXT: ARE-bla HepG2, beta-lactamase reporter, 16 h; series mostly up to 46.1 µM
Results filed as inconclusive are left out. Calls of active or inactive are those of the source. Calls follow the shape of the dose curve; as a rule, active = well fitted activation curve with a large enough effect; inconclusive = small, poorly fitted or top-dose-only effect; inactive = no such curve, though single readings can be large or run the other way. Peptide text beside a SMILES is read from it. * marks the point of attachment. Hexanoyl = CCCCCC(=O)*
Select the matching outcome among yes (1) (active), no (0) (inactive)

Use the examples below as a reference point.
COMPOUND	ASSIGNED_LABEL
CC(=O)N[C@H](C)c1nc(/C=C/C=C/C(=O)CC2CC(=O)CC[C@]2(C)O)cs1 (some centres not stated)	no (0)
C[C@H](c1cnc(N)[nH]1)c1ccc(O)c2[nH]cc(-c3cnc(-c4c[nH]c5ccccc45)c(=O)[nH]3)c12	no (0)
CC(=O)c1c(C)cc2c(c1O)C(=O)c1c(O)cc(O)cc1C2=O	no (0)
C/C=C/c1cc2c(c(=O)o1)C(=O)[C@@H](O)[C@H](C)O2	yes (1)
CC(=O)O[C@H]1c2ccccc2-c2c3c(cc4c2[C@@H]1N(C(C)=O)CC4)OCO3	yes (1)

Entry C=C[C@@]1(C)CC[C@@H]([C@H](C)C(=O)/C=C/C(C)(C)O)O1 : call = ?
yes (1)

Entry CCCCCC(=O)N[C@@H](CC(C)C)C(=O)N[C@H](C=O)CCC(=O)O (Hexanoyl-Leu-Glu-aldehyde) : call = ?
no (0)

Entry CCC(=O)N[C@@H](C[C@H](C)C(Cl)(Cl)Cl)C(=O)N1C(=O)C=C(OC)[C@@H]1C[C@H](C)CCl : call = ?
no (0)

Entry CN1CC[C@]23c4ccccc4N[C@H]1[C@]21CCN(C)[C@H]3Nc2ccccc21 : call = ?
no (0)

Entry C/C(=C\[C@H](C)C(=O)CCCC1CC(=O)NC(=O)C1)[C@@H]1OC(=O)/C=C/CC/C=C/[C@H](O)[C@@H](O)[C@@H]1C : call = ?
no (0)

Entry COC(=O)c1cc2cc3c(c(O)c2c(=O)o1)OC1(CC3)CC2=C(O1)C(=O)c1c(O)c(OC)cc(OC)c1C2=O (configuration not stated) : call = ?
yes (1)

Entry C/C=C/C1C=CC2CC(C)CC(C)C2C1C(=O)CC(=O)NC(CO)C/C=C/CCCCC (configuration not stated) : call = ?
yes (1)

Entry O=C1CC2OCC=C3CN4C5CC3C2[C@@H]2N1c1ccccc1[C@]52C[C@@H]4C1=C[C@H]2C3CC4N(CC[C@@]45c4ccccc4N(C1=O)[C@@H]25)C/C3=C/CO (some centres not stated) : call = ?
yes (1)

Entry CN1CC[C@@]23c4ccccc4N[C@@H]1[C@@]21CCN(C)[C@@H]3Nc2ccccc21 : call = ?
no (0)

Entry CN1CC[C@@]2([C@@]34CCN(C)[C@@H]3Nc3ccccc34)c3ccccc3N[C@@H]12 : call = ?
no (0)

Entry O=C1c2c(O)cc(O)cc2OC(c2ccc(O)cc2)C1O (configuration not stated) : call = ?
no (0)

Entry CC[C@@H]1[C@H](C)[C@H](c2cc(OC)c(OC)cc2OC)[C@@H](C)[C@H](c2cc(OC)c(OC)cc2OC)[C@]12C=C(OC)C(=O)C=C2OC : call = ?
no (0)
